- Tested on: SF-268
- TEST DESCRIPTION: NCI tumour cell line growth inhibition, 48 h
The source made the active and inactive calls. Cut-off read from the data, not from the text of the source: active = GI50 up to about 1.1 µM and inactive = higher.
OUTCOME MEASURE: GI50

Recorded GI50 of `COc1ccc([C@@]23CCC(=O)C[C@@H]2N(C)CC3)cc1OC` , please.
> 100 µM (inactive)

Recorded GI50 of `O=c1ccn(CC2(CO)CCC2)c(=O)[nH]1` , please.
> 100 µM (inactive)

Recorded GI50 of COC(=O)C(C)Oc1ccc(O)cc1 (stereo unspecified) , please.
20.6 µM (inactive)

Recorded GI50 of `CNc1ccc2c(c1)[C@@]1(C)c3ccccc3[C@@H](C2)N1C` , please.
44.4 µM (inactive)

Recorded GI50 of CCCOP1(=O)C=C(O)C(Cl)=C(C)C1 (stereo unspecified) , please.
> 100 µM (inactive)

Recorded GI50 of `CC(C)Oc1cccc(N2C(n3ccnc3)=Nc3ccncc3S2(=O)=O)c1` , please.
16.3 µM (inactive)
